All figures here come from ChEMBL document CHEMBL3407460.

tested on: Candida albicans; assay: Antifungal activity against Candida albicans ATCC 10231 assessed as growth inhibition at 250 ug/ml after 48 hrs by broth microdilution method; format: functional; settings: ATCC 10231, 48 h
assay_endpoint: inhibition at 250 µg/mL (%)

COc1ccc(C2=Nc3c(N)nc(N)nc3NC(c3sc(Cl)nc3Cl)C2)cc1 (configuration not stated) :: 62.6
COc1cc(C2=Nc3c(N)nc(N)nc3NC(c3sc(Cl)nc3Cl)C2)cc(OC)c1OC (configuration not stated) :: 15
Nc1nc(N)c2c(n1)NC(c1sc(Cl)nc1Cl)CC(c1ccc(Cl)cc1)=N2 (configuration not stated) :: 100
Nc1nc(N)c2c(n1)NC(c1sc(Cl)nc1Cl)CC(c1ccc3c(c1)OCO3)=N2 (configuration not stated) :: 56.8
Nc1nc(N)c2c(n1)NC(c1sc(Cl)nc1Cl)CC(c1ccc(F)cc1)=N2 (configuration not stated) :: 59.9
Cc1ccc(C2=Nc3c(N)nc(N)nc3NC(c3sc(Cl)nc3Cl)C2)cc1 (configuration not stated) :: 55.5
Nc1nc(N)c2c(n1)NC(c1sc(Cl)nc1Cl)CC(c1ccccc1)=N2 (configuration not stated) :: 100
